Test system: SNB-78 CNS
Assay: NCI tumour cell line growth inhibition, 48 h
Reported Property: TGI

Examples with answers:
• CCCN(CCC)c1c([N+](=O)[O-])cc(C(=O)N(C)C)cc1[N+](=O)[O-] = > 100 µM
• N#Cc1nc(Nc2ccc([N+](=O)[O-])cc2)sc1N = > 93 µM
• Cn1cnc([N+](=O)[O-])c1Sc1nnc(C(F)(F)F)n1C = > 100 µM

Using the record for COC1(OC)c2ccccc2C2(O)c3ccccc3C(=O)C12 (configuration not stated) , report its TGI.
> 100 µM

Field request: TGI | item: CC1=N/C(=C\c2ccc([N+](=O)[O-])cc2)C(=O)O1
> 100 µM

What value of TGI has been reported for the following molecule? CCOC(=O)CN(Cc1ccccc1)Cc1c(C(=O)c2ccccc2)c2ccccc2n1C(=O)c1ccccc1
> 100 µM

Which value of TGI has been reported for O=C1c2ccccc2C2(O)Oc3cccc(O)c3C12O (configuration not stated) in the records?
> 100 µM

Quick check: TGI of CCc1cccc(C(C)CC)c1NC(=O)CC1C(=O)Nc2ccccc2S1=O (configuration not stated) ?
92.9 µM

Consider the molecule COc1ccc(S(=O)(=O)N/N=C(\C)CN2C(=O)c3ccccc3C2=O)cc1 and give its measured TGI.
> 100 µM

# query: TGI of entry Cc1nn(C)c(=O)c2nn(-c3ccccc3)c(C)c12
> 100 µM

Query (molecule): O=C(O/N=C1/CCCC/C1=C\c1ccccc1)c1ccc(Cl)cc1 ; field requested: TGI
> 100 µM

What value of TGI has been recorded for this entry: CCCCCCCCCC(=O)N[C@H]1CCc2cc(OC)c(OC)c(OC)c2-c2ccc(SC)c(=O)cc21
38.9 µM

----------
Tested on: HCC-2998 colon
Assay: NCI tumour cell line growth inhibition, 48 h; in the data active means GI50 below about 0.43 µM; inactive means the rest
Hi there, use one of these labels in your reply, thanks! true (1) (active), false (0) (inactive)

As a guide, the following entries are already answered.
* Cc1[nH]nc(C(=O)Nc2n[nH]c3ccccc23)c1[N+](=O)[O-] | false (0)
* COc1cc(/C=C/C(=O)c2cc(OC)c(OC)c(OC)c2)cc(OC)c1OC | false (0)
* C#CC#CC#CC#CC#CC#CC#CC#CCC1OC[C@H](COC(=O)O[C@@H](C(=O)O[C@H]2C[C@@]3(O)[C@@H](OC(=O)c4ccccc4)[C@@H]4[C@]5(OC(C)=O)CO[C@@H]5C[C@H](O)[C@@]4(C)C(=O)[C@H](OC(C)=O)C(=C2C)C3(C)C)[C@@H](NC(=O)c2ccccc2)c2ccccc2)O1 (stereo partly drawn) | false (0)
* c1ccc2c(c1)ccc1c3ccccc3ccc21 | false (0)

State the result this test recorded for Oc1ccc(-c2nc3ccc4[nH]ncc4c3c3c2CCCC3)c2cccnc12 .
true (1)

What outcome does the record of this test show for C=C1C(=O)O[C@H]2[C@H]1CC(=O)/C(C)=C\CC[C@@]1(C)O[C@@H]21 ?
false (0)

Can you look up the reported call for COC(=O)[C@]12CC[C@@H](C)[C@H](C)[C@@H]1C1=CC[C@@H]3[C@@]4(C)C=C(O)C(=O)C(C)=C4CC[C@@]3(C)[C@]1(C)CC2 for me?
false (0)

Record request — test call for CC(C)[C@@H](CS(=O)(=O)C(C)C)N1C(=O)[C@@](C)(CC(=O)O)C[C@H](c2cccc(Cl)c2)[C@H]1c1ccc(Cl)cc1
false (0)

Lab log entry: Nc1nc(Nc2ccc3c(c2)CCC(N2CCCC2)CC3)nn1-c1cc2c(nn1)-c1ccccc1CCC2 (stereo not drawn) — outcome as called in the assay?
false (0)

What was the test verdict on COc1ccc(C(=O)N/N=C/c2ccc(O)cc2O)cc1Nc1ccnc(C(F)(F)F)c1 ?
false (0)
